QUANTITY_NAME: melting point

| COMPOUND | QUANTITY_NAME | REPORTED_VALUE |
| --- | --- | --- |
| CCCC(=O)OCOc1c(OC)ccnc1C(=O)N[C@H]1COC(=O)[C@H](Cc2ccccc2)[C@@H](OC(=O)C(C)C)[C@H](C)OC1=O | melting point | 102 to 105 °C |
| COc1ccnc(C(=O)N[C@H]2COC(=O)[C@H](Cc3ccccc3)[C@@H](OC(=O)C(C)C)[C@H](C)OC2=O)c1OCOC(C)C | melting point | 124 to 127 °C |
| COc1ccnc(C(=O)N[C@H]2COC(=O)[C@H](Cc3ccccc3)[C@@H](OC(=O)C(C)C)[C@H](C)OC2=O)c1OC(C)OC(C)=O (stereo partly drawn) | melting point | 58 to 65 °C |
| COc1ccnc(C(=O)N[C@H]2COC(=O)[C@H](Cc3ccccc3)[C@@H](OC3CCCC3)[C@H](C)OC2=O)c1OCOC(C)=O | melting point | 130 to 132 °C |
| CCCO[C@H]1[C@H](C)OC(=O)[C@@H](NC(=O)c2nccc(OC)c2OCOC(C)=O)COC(=O)[C@@H]1Cc1ccccc1 | melting point | 65 to 120 °C |
| COc1ccnc(C(=O)N[C@H]2COC(=O)[C@H](Cc3ccccc3)[C@@H](OC(=O)C(C)C)[C@H](C)OC2=O)c1OCOC(=O)C1CC1 | melting point | 152 to 153 °C |

----------
system: Leptosphaeria nodorum (LEPTNO); test: Glume Blotch of Wheat, whole plant 24 Hour Protectant (T2); settings: Parastagonospora nodorum; wheat (cultivar Yuma), sprayed at 100 ppm, inoculated after 24 hours; read-out: T2 LEPTNO in vivo 1 Day Protectant, control of fungal infection
Entries and their measured pest or weed control at 100 ppm follow.

| STRUCTURE_AS_SMILES | pest or weed control at 100 ppm |
| --- | --- |
| COc1ccnc(C(=O)N[C@H]2COC(=O)[C@H](Cc3ccccc3)[C@@H](OC(=O)C(C)C)[C@H](C)OC2=O)c1OCOC(=O)COC(C)C | 75 to 100% |
| COc1ccnc(C(=O)N[C@H]2COC(=O)[C@H](Cc3ccccc3)[C@@H](OC(=O)C(C)C)[C@H](C)OC2=O)c1OCOC(=O)C1CC1 | 75 to 100% |
| CCCO[C@H]1[C@H](C)OC(=O)[C@@H](NC(=O)c2nccc(OC)c2OCOC(=O)CCC)COC(=O)[C@@H]1Cc1ccccc1 | 75 to 100% |

----------
Entries and their measured melting point follow.

| STRUCTURE_AS_SMILES | melting point |
| --- | --- |
| COc1ccnc(C(=O)N[C@H]2COC(=O)[C@H](Cc3ccccc3)[C@@H](OC(=O)C(C)C)[C@H](C)OC2=O)c1OCOCC(C)C | 133 to 136 °C |
| COC(=O)OCOc1c(OC)ccnc1C(=O)N[C@H]1COC(=O)[C@H](Cc2ccccc2)[C@@H](OC(=O)C(C)C)[C@H](C)OC1=O | 140 to 144 °C |
| COc1ccnc(C(=O)N[C@H]2COC(=O)[C@H](Cc3ccccc3)[C@@H](OC(=O)C(C)C)[C@H](C)OC2=O)c1OCOCCCl | 140 to 143 °C |
| COc1ccnc(C(=O)N[C@H]2COC(=O)[C@H](Cc3ccccc3)[C@@H](OC(=O)C(C)C)[C@H](C)OC2=O)c1OCOC(=O)C(C)(C)C | 178 to 179 °C |
| COc1ccnc(C(=O)N[C@H]2COC(=O)[C@H](Cc3ccccc3)[C@@H](OC(=O)C(C)C)[C@H](C)OC2=O)c1OCSC | 146 to 148 °C |
| COc1ccnc(C(=O)N[C@H]2COC(=O)[C@H](Cc3ccccc3)[C@@H](OC(=O)C(C)C)[C@H](C)OC2=O)c1OCOC(C)=O | 146 to 147 °C |

----------
Entries and their measured inhibition at 25 ppm follow.
test system: Ustilago maydis (USTIMA); assay: microbe, parasite or virus in culture; format: cell-based; details: Mycosarcoma maydis, read-out: T12 USTIMA in vitro Growth Inhibition
QUANTITY_NAME: inhibition at 25 ppm

| STRUCTURE_AS_SMILES | TESTED_ON | QUANTITY_NAME | REPORTED_VALUE |
| --- | --- | --- | --- |
| COc1ccnc(C(=O)N[C@H]2COC(=O)[C@H](Cc3ccccc3)[C@@H](OC(=O)C(C)C)[C@H](C)OC2=O)c1OCOC(=O)C1CCCC1 | Ustilago maydis (USTIMA) | inhibition at 25 ppm | < 80% |
| COC(=O)CCC(=O)OCOc1c(OC)ccnc1C(=O)N[C@H]1COC(=O)[C@H](Cc2ccccc2)[C@@H](OC(=O)C(C)C)[C@H](C)OC1=O | Ustilago maydis (USTIMA) | inhibition at 25 ppm | < 80% |
| COCOc1c(OC)ccnc1C(=O)N[C@H]1COC(=O)[C@H](Cc2ccccc2)[C@@H](OC(=O)C(C)C)[C@H](C)OC1=O | Ustilago maydis (USTIMA) | inhibition at 25 ppm | < 80% |
| COCCOC(=O)OCOc1c(OC)ccnc1C(=O)N[C@H]1COC(=O)[C@H](Cc2ccccc2)[C@@H](OC(=O)C(C)C)[C@H](C)OC1=O | Ustilago maydis (USTIMA) | inhibition at 25 ppm | > 80% |
| C=C(C)CO[C@H]1[C@H](C)OC(=O)[C@@H](NC(=O)c2nccc(OC)c2OCOC(C)=O)COC(=O)[C@@H]1Cc1ccccc1 | Ustilago maydis (USTIMA) | inhibition at 25 ppm | < 80% |
| COc1ccnc(C(=O)N[C@H]2COC(=O)[C@H](Cc3ccccc3)[C@@H](OC(=O)C(C)C)[C@H](C)OC2=O)c1OCO[Si](C)(C)C | Ustilago maydis (USTIMA) | inhibition at 25 ppm | < 80% |
| CCCO[C@H]1[C@H](C)OC(=O)[C@@H](NC(=O)c2nccc(OC)c2OCOC(=O)C2CCCC2)COC(=O)[C@@H]1Cc1ccccc1 | Ustilago maydis (USTIMA) | inhibition at 25 ppm | > 80% |
| COc1ccnc(C(=O)N[C@H]2COC(=O)[C@H](Cc3ccccc3)[C@@H](OC(=O)C(C)C)[C@H](C)OC2=O)c1OCOC(C)=O | Ustilago maydis (USTIMA) | inhibition at 25 ppm | > 80% |
| C=CCO[C@H]1[C@H](C)OC(=O)[C@@H](NC(=O)c2nccc(OC)c2OCOC(C)=O)COC(=O)[C@@H]1Cc1ccccc1 | Ustilago maydis (USTIMA) | inhibition at 25 ppm | < 80% |
| CCOCC(=O)OCOc1c(OC)ccnc1C(=O)N[C@H]1COC(=O)[C@H](Cc2ccccc2)[C@@H](OCSC)[C@H](C)OC1=O | Ustilago maydis (USTIMA) | inhibition at 25 ppm | > 80% |
| COc1ccnc(C(=O)N[C@H]2COC(=O)[C@H](Cc3ccccc3)[C@@H](OC)[C@H](C)OC2=O)c1OCOC(C)=O | Ustilago maydis (USTIMA) | inhibition at 25 ppm | > 80% |
| COc1ccnc(C(=O)N[C@H]2COC(=O)[C@H](Cc3ccccc3)[C@@H](OC(=O)C(C)C)[C@H](C)OC2=O)c1OCOC(=O)COc1ccccc1 | Ustilago maydis (USTIMA) | inhibition at 25 ppm | < 80% |

----------
Entries and their measured pest or weed control at 100 ppm follow.
system: Leptosphaeria nodorum (LEPTNO); test: Glume Blotch of Wheat, whole plant 24 Hour Protectant (T2); conditions: Parastagonospora nodorum; wheat (cultivar Yuma), sprayed at 100 ppm, inoculated after 24 hours; read-out: T2 LEPTNO in vivo 1 Day Protectant, control of fungal infection

| COMPOUND | pest or weed control at 100 ppm |
| --- | --- |
| CCOC(C)C(=O)OCOc1c(OC)ccnc1C(=O)N[C@H]1COC(=O)[C@H](Cc2ccccc2)[C@@H](OC(=O)C(C)C)[C@H](C)OC1=O (stereo partly drawn) | 75 to 100% |
| COc1ccnc(C(=O)N[C@H]2COC(=O)[C@H](Cc3ccccc3)[C@@H](OC(=O)C(C)C)[C@H](C)OC2=O)c1OCSc1ccccc1 | 75 to 100% |
| COc1ccnc(C(=O)N[C@H]2COC(=O)[C@H](Cc3ccccc3)[C@@H](OC(=O)C(C)C)[C@H](C)OC2=O)c1OCOC(=O)COC1CCCC1 | 75 to 100% |

----------
test system: Puccinia recondita (PUCCRT); assay: Brown Rust of Wheat, whole plant 24 Hour Protectant (T5); details: wheat (cultivar Yuma), sprayed at 100 ppm, inoculated after 24 hours, read-out: T5 PUCCRT in vivo 1 Day Protectant, control of fungal infection
Entries and their measured pest or weed control at 100 ppm follow.
QUANTITY_NAME: pest or weed control at 100 ppm

| MOLECULE | TESTED_ON | QUANTITY_NAME | REPORTED_VALUE |
| --- | --- | --- | --- |
| COCCOCC(=O)OCOc1c(OC)ccnc1C(=O)N[C@H]1COC(=O)[C@H](Cc2ccccc2)[C@@H](OC(=O)C(C)C)[C@H](C)OC1=O [Compound 40] | Puccinia recondita (PUCCRT) | pest or weed control at 100 ppm | 75 to 100% |
| COCCOCOc1c(OC)ccnc1C(=O)N[C@H]1COC(=O)[C@H](Cc2ccccc2)[C@@H](OC(=O)C(C)C)[C@H](C)OC1=O [Compound 11] | Puccinia recondita (PUCCRT) | pest or weed control at 100 ppm | 75 to 100% |
| COCCOC(=O)OCOc1c(OC)ccnc1C(=O)N[C@H]1COC(=O)[C@H](Cc2ccccc2)[C@@H](OCC(C)C)[C@H](C)OC1=O [Compound 57] | Puccinia recondita (PUCCRT) | pest or weed control at 100 ppm | 75 to 100% |
| COc1ccnc(C(=O)N[C@H]2COC(=O)[C@H](Cc3ccccc3)[C@@H](OC(=O)C(C)C)[C@H](C)OC2=O)c1OC1OC(=O)c2ccccc21 (stereo partly drawn) [Compound 43] | Puccinia recondita (PUCCRT) | pest or weed control at 100 ppm | 75 to 100% |
| COc1ccnc(C(=O)N[C@H]2COC(=O)[C@H](Cc3ccccc3)[C@@H](OC(=O)C(C)C)[C@H](C)OC2=O)c1OCSc1ccccc1 [Compound 19] | Puccinia recondita (PUCCRT) | pest or weed control at 100 ppm | 75 to 100% |
| COc1ccnc(C(=O)N[C@H]2COC(=O)[C@H](Cc3ccccc3)[C@@H](OC(=O)C(C)C)[C@H](C)OC2=O)c1OCOC(=O)C1CCCC1 [Compound 33] | Puccinia recondita (PUCCRT) | pest or weed control at 100 ppm | 75 to 100% |

The values you see were collected from patent US6861390B2.
